Test system: EOC 13.31 microglia cells
Assay: Inhibition of NO release from microglia following 24 hours pretreatment (Example 10)
Type: cell-based
Conditions: Microglia, 50 uM pretreatment 24 hours, then LPS/IFNγ 48 hours; read-out: Avg % Inhibition
Record form. Attribute: inhibition at 50 µM. Fill in for each entry.
Answers are plain numbers, in %.

molecule="Oc1ccc(CCc2ccc(O)c(O)c2)cc1O [Compound 4, 1,2-bis(3,4-dihydroxyphenyl)ethane]" testresult=100
molecule="O=C(NCCc1ccc(O)c(O)c1)Nc1ccc(O)c(O)c1 [Compound 78]" testresult=65.5
molecule="O=C(NCc1ccc(O)c(O)c1)Nc1ccc(O)c(O)c1 [Compound 77]" testresult=96.8

Let's switch to this molecule now.
Please give the documented inhibition at 50 µM of O=C(CCC(=O)Nc1ccc(O)c(O)c1)Nc1ccc(O)c(O)c1 [Compound 66, succinic acid bis(3,4-dihydroxyanilide)]
64.3

====

System: Microglial cells
Assay: Dose response inhibition of NO release from microglia, 0.5-500 μM (Example 9)
Type: cell-based
Conditions: Microglia, 48 h, dose 250 μM; individual replicates; NO release, LPS/IFNγ, 48 hours; read-out: % inhibition
reportedMetric: inhibition at 250 µM (%)
Numbers only, in %.

Worked cases, answers included:
molecule=O=C(CCC(=O)NCc1ccc(O)c(O)c1)NCc1ccc(O)c(O)c1 reportedmetric="inhibition at 250 µM" unitsymbol=% testresult=45.3
molecule="Oc1ccc(CNCc2ccc(O)c(O)c2)cc1O [Compound 73, bis(3,4-dihydroxybenzyl)amine]" reportedmetric="inhibition at 250 µM" unitsymbol=% testresult=46.7
molecule=O=C(NCc1ccc(O)c(O)c1)C(=Cc1ccc(O)c(O)c1)NC(=O)c1ccc(O)c(O)c1 reportedmetric="inhibition at 250 µM" unitsymbol=% testresult=81

API: the following record is the query input.
Query inhibition at 250 µM for O=C(N[C@@H]1CCCC[C@H]1NC(=O)c1ccc(O)c(O)c1)c1ccc(O)c(O)c1 (relative stereo)
36.3

====

System: Microglial cells
Experiment: Dose response inhibition of NO release from microglia, 0.75-200 μM (Example 8)
Assay type: cell-based
Conditions: dose 25 μM, 48 hours
reportedMetric: μM NO release Avg
Don't forget the unit after the value.

compound="Oc1ccc(Cc2ccc(O)c(O)c2)cc1O [Compound 3, 3,4,3′,4′-tetrahydroxydiphenylmethane]" testedon="Microglial cells" testresult="16.875 µM"
compound="O=C(N[C@@H]1CCCC[C@H]1NC(=O)c1ccc(O)c(O)c1)c1ccc(O)c(O)c1 (relative stereo)" testedon="Microglial cells" testresult="21.875 µM"
compound=O=C(NCc1ccc(O)c(O)c1)C(=Cc1ccc(O)c(O)c1)NC(=O)c1ccc(O)c(O)c1 testedon="Microglial cells" testresult="19.219 µM"

Moving on to the next compound.
Look up μM NO release Avg of Oc1ccc(CCc2ccc(O)c(O)c2)cc1O [Compound 4, 1,2-bis(3,4-dihydroxyphenyl)ethane] and report it.
3.357 µM

====

Test system: EOC 13.31 microglia cells
Assay: Inhibition of NO release from microglia following 24 hours pretreatment (Example 10)
Format: cell-based
Settings: Microglia, 50 uM pretreatment 24 hours, then LPS/IFNγ 48 hours; read-out: Avg % Inhibition
Classify as follows. Reported inhibition at 50 µM greater than or equal to 80%: 1 (yes). Reported inhibition at 50 µM below: 0 (no).

compound=O=C(NCc1ccc(O)c(O)c1)C(=Cc1ccc(O)c(O)c1)NC(=O)c1ccc(O)c(O)c1 testedon="EOC 13.31 microglia cells" classassignment="1 (yes)"

Now for a further compound.
Given the entry O=C(Nc1ccc(O)c(O)c1)Nc1ccc(O)c(O)c1 [Compound 76, 1,3-bis(3,4-dihydroxyphenyl)urea] , answer whether its inhibition at 50 µM meets or surpasses 80%.
0 (no)
